I'd be grateful if you could share measured Ki for these entries.
Protein target, amino acids: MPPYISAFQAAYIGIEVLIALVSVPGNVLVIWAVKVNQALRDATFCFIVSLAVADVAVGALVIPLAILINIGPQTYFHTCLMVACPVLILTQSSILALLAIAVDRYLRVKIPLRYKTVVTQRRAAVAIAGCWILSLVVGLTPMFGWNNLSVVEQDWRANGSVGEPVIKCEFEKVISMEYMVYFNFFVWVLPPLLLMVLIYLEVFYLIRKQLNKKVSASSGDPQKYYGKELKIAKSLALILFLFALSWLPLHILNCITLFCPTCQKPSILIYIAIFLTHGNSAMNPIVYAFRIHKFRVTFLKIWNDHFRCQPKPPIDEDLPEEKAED
Hi! Could you send only the number? It should be in nM, unit omitted.

Req: Please list Ki recorded for the molecule CCNC(=O)C1OC(n2cnc3c(N)nc(C#CC(O)c4ccccc4)nc32)C(O)C1O (centres undefined) [R,S-PHPNECA]
Resp: 2.5

Req: Entry CCCCC#Cc1nc(N)c2ncn([C@@H]3O[C@H](C(=O)NCC)[C@H](O)C3O)c2n1 (some centres undefined) needs its Ki filled in; supply it.
Resp: 130

Req: Indicate the recorded Ki value for this molecule: CCNC(=O)[C@@H]1OC(n2cnc3c(N)nc(C#CC(O)c4ccccc4)nc32)[C@H](O)[C@@H]1O (some centres undefined) [S-PHPNECA]
Resp: 4

Req: Name the recorded Ki of the molecule listed here: CCNC(=O)[C@H]1OC(n2cnc3c(N)nc(C#CC(O)c4ccccc4)nc32)[C@@H](O)[C@H]1O (some centres undefined)
Resp: 5.9

The origin of these recorded values is BindingDB's records for doi:10.1016/s0968-0896(97)00172-7.
